Reference source for all entries: patent US8575173B2

- system: CYP2D6 (Homo sapiens, UniProt P10635)
- Sequence (P10635 whole entry): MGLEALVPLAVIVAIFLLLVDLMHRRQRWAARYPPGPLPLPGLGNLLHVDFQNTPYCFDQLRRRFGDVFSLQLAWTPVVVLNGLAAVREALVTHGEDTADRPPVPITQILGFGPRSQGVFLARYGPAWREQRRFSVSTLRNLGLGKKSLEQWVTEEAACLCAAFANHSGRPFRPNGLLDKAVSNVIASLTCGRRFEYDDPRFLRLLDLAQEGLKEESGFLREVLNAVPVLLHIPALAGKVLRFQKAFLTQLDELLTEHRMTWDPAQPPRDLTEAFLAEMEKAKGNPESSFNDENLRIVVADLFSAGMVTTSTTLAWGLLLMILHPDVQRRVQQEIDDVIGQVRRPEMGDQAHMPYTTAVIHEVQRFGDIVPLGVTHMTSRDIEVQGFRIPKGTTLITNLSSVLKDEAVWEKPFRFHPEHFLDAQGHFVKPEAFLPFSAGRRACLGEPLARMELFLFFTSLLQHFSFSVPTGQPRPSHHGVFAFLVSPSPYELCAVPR
- assay-protocol: CYP450 inhibitory activity, CYP2D6
- Type: in vitro ADME
- conditions: CYP2D6 enzyme membrane, 10 μM compound, read-out: Inhibition of CYP450, % @10 μM: 2D6
readout: inhibition at 30 min, 10 µM
Number first, unit second: that is the form wanted.

[Q] // query inhibition at 30 min, 10 µM value for entry `O=C(CNC(=O)c1cccc(C(F)(F)F)c1)N[C@@H]1CCN(CCN2CCN(C(=O)c3ccccc3)CC2)C1`
[A] 8.5%

[Q] // query inhibition at 30 min, 10 µM value for entry `Cc1ccccc1C(=O)N1CCN(CCN2CC[C@@H](NC(=O)CNC(=O)c3cccc(C(F)(F)F)c3)C2)CC1`
[A] -3.5%

====

- system: CYP2C9 (Homo sapiens, UniProt P11712)
- Sequence (P11712 whole entry): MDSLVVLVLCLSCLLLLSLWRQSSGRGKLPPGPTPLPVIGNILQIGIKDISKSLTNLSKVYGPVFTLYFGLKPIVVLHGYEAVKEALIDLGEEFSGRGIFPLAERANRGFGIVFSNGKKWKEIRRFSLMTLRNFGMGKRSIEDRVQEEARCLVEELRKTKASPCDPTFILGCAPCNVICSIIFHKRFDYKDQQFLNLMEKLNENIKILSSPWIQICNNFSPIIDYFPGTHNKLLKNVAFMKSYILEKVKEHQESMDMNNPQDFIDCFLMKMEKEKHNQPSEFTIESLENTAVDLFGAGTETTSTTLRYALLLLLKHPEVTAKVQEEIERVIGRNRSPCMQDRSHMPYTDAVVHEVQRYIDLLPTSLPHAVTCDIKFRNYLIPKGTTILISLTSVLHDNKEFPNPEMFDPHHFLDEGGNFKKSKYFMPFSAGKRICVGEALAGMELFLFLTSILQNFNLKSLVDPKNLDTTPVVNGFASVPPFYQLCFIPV
- assay-protocol: CYP450 inhibitory activity, CYP2C9
- Type: in vitro ADME
- conditions: CYP2C9 enzyme membrane, 10 μM compound, read-out: Inhibition of CYP450, % @10 μM: 2C9
- Experimental: It is analyzed inhibitory activity assay on 5 types (CYP3A4, 2C9, 2C19, 2D6, 1A2) of 11 types CYP450, drug metabolic enzyme. Luciferin detection reagent is dissolved in buffer solution and each CYP enzyme membrane is prepared. 4-fold concentration of the compound in 6.25 μl is prepared, and added to 6.25 μl mixture containing enzyme and proper different substrate depending on enzyme types, and kept for 10 min. […]
Assignment: determine reported inhibition at 30 min, 10 µM for the given molecules.

[Q] // query inhibition at 30 min, 10 µM value for entry Cc1ccccc1C(=O)N1CCN(CCN2CC[C@@H](NC(=O)CNC(=O)c3cccc(C(F)(F)F)c3)C2)CC1 [Example 7]
[A] 19%

[Q] // query inhibition at 30 min, 10 µM value for entry O=C(CNC(=O)c1cccc(C(F)(F)F)c1)N[C@@H]1CCN(CCN2CCN(C(=O)c3ccccc3)CC2)C1 [Example 6]
[A] 23.6%

====

- system: CYP1A2 (Homo sapiens)
- Sequence (P05177 whole entry): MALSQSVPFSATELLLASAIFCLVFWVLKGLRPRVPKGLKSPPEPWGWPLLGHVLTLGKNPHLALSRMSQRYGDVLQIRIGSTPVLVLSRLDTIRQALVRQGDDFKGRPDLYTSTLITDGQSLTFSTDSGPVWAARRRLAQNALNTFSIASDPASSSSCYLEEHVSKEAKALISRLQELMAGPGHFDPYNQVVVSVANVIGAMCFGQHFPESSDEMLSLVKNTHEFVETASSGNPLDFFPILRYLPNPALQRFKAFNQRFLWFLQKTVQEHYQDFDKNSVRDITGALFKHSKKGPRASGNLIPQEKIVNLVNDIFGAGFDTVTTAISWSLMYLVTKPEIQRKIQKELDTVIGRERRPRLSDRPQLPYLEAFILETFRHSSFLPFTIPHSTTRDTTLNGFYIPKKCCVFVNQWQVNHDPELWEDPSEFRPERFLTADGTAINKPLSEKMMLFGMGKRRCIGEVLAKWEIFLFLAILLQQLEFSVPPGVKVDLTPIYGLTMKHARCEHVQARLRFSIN
- assay-protocol: CYP450 inhibitory activity, CYP1A2
- Assay type: in vitro ADME
- conditions: CYP1A2 enzyme membrane, 10 μM compound, read-out: Inhibition of CYP450, % @10 μM: 1A2
readout: inhibition at 30 min, 10 µM (%)
Give just the number in %; leave the unit off.

[Q] Provide value of inhibition at 30 min, 10 µM for this record tested with CYP1A2 (Homo sapiens): O=C(CNC(=O)c1cccc(C(F)(F)F)c1)N[C@@H]1CCN(CCN2CCN(C(=O)c3ccccc3)CC2)C1 [Example 6]
[A] 23.5

[Q] Provide value of inhibition at 30 min, 10 µM for this record tested with CYP1A2 (Homo sapiens): Cc1ccccc1C(=O)N1CCN(CCN2CC[C@@H](NC(=O)CNC(=O)c3cccc(C(F)(F)F)c3)C2)CC1 [Example 7]
[A] 6.6

====

Assignment: determine reported IC50 for the given compounds.
- system: CCR2 (Homo sapiens, UniProt P41597)
- Sequence (P41597 whole entry): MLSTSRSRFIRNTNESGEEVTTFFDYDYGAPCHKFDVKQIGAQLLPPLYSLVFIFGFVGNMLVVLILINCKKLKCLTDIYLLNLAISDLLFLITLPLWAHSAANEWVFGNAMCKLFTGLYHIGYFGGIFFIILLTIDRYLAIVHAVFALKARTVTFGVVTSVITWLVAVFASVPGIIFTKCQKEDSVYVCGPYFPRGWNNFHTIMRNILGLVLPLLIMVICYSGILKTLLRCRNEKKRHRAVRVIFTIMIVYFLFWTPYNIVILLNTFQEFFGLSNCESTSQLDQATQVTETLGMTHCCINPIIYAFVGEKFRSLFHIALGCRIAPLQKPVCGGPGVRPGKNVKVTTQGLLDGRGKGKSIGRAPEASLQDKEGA
- assay-protocol: CCR2 receptor protein binding assay ([125I]-MCP1)
- Design: purchased Perkinelmer, USA; host or cells: CHO cell membranes
- conditions: [125I]-MCP1 binding, CCR2 membrane expressed in CHO cell; read-out: Affinity to CCR2 receptor, IC50
- Procedure: The buffer used for receptor binding assay is 50 mM Hepes (pH 7.4) containing 5 mM MgCl2, 1 mM CaCl2 and 0.5% BSA. […] After incubation, reaction is terminated with fast filtering through Wallac filtermat A GF/C glass fiber filter (Wallac, Finland) pre-wetted in 0.5% PEI using Inotech harvester (Inotech) and is washed in cold 50 mM Tris-HCl (pH 7.4) buffer solution. After filter is covered with MeltiLex, it is sealed in sample bag, dried on oven, and counted using MicroBeta Plus (Wallac). […]
Number first, unit second: that is the form wanted.

[Q] // query IC50 value for entry `Cc1ccccc1C(=O)N1CCN(CCN2CC[C@@H](NC(=O)CNC(=O)c3cccc(C(F)(F)F)c3)C2)CC1`
[A] 4.44 µM

[Q] // query IC50 value for entry `O=C(CNC(=O)c1cccc(C(F)(F)F)c1)N[C@@H]1CCN(CCN2CCN(C(=O)c3ccccc3)CC2)C1`
[A] 0.99 µM

====

- system: UniProtKB P41597
- assay-protocol: Inhibitory effect on MCP-1 induced chemotaxis of THP-1 cells
- Type: cell-based
- Design: endogenous in cells; host or cells: THP-1
- conditions: hMCP-1 10 ng/ml, 2 hours, read-out: Inhibition of Chemotaxis, IC50
readout: pIC50
// returns pIC50 (minus log10 of molar concentration), number only

[Q] // query pIC50 value for entry `O=C(CNC(=O)c1cccc(C(F)(F)F)c1)N[C@@H]1CCN(CCN2CCN(C(=O)c3ccccc3)CC2)C1`
[A] 8.05

[Q] // query pIC50 value for entry `Cc1ccccc1C(=O)N1CCN(CCN2CC[C@@H](NC(=O)CNC(=O)c3cccc(C(F)(F)F)c3)C2)CC1`
[A] 7.15

====

- system: CCR2b (Homo sapiens, UniProt P41597)
- Sequence (P41597 1-360 isoform P41597-2): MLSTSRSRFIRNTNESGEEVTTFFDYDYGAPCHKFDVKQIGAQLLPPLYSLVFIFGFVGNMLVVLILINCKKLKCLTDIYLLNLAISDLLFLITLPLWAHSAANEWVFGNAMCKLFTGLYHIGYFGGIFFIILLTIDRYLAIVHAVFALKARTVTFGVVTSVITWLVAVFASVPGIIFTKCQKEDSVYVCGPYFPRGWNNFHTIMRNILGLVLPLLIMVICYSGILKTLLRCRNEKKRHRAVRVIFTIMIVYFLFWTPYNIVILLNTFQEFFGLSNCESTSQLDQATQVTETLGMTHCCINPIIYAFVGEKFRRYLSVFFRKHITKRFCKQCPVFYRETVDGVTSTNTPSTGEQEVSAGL
- assay-protocol: CCR2 inhibitory effect on Ca2+ flux (HEK293/CCR2b, MCP-1 stimulated)
- conditions: HEK293/CCR2b cells, MCP-1 added; read-out: Blocking Ca^2+ flux, IC50
readout: pIC50
// returns pIC50 (minus log10 of molar concentration), number only

[Q] // query pIC50 value for entry `O=C(CNC(=O)c1cccc(C(F)(F)F)c1)N[C@@H]1CCN(CCN2CCN(C(=O)c3ccccc3)CC2)C1`
[A] 7.74

[Q] // query pIC50 value for entry `Cc1ccccc1C(=O)N1CCN(CCN2CC[C@@H](NC(=O)CNC(=O)c3cccc(C(F)(F)F)c3)C2)CC1`
[A] 6.92
